The reported numbers originate from ChEMBL document CHEMBL4359905.

# targetEntity: Bromodomain-containing protein 4 (Homo sapiens, UniProt O60885)
# test: Binding affinity to human recombinant BRD4 BD1 (44 to 168 residues) by fluorescence polarization assay
Consider the following compounds; for each one, report its pKi.
Numbers only, as −log10 of the molar value.

Hi! Can you tell me pKi for each of these compounds?
1. Cc1nnc2n1-c1ccc(-c3ccnc(N)c3)cc1C(Nc1ccc(Cl)cc1)CC2 (stereo not given)
2. Cc1nnc2n1-c1ccc(-c3ccc(N)nc3)cc1C(Nc1cccc3ccccc13)CC2 (stereo not given)

Ans.
1: 6.27; 2: 6.15

====

Consider the following compounds; for each one, report its pKi.
# targetEntity: Bromodomain-containing protein 4 (Homo sapiens, UniProt O60885)
# test: Binding affinity to human recombinant BRD4 BD2 (333 to 460 residues) by fluorescence polarization assay
Give bare numbers, as −log10 of the molar value.

Worked examples, 2 compounds total:
Cc1nnc2n1-c1ccc(-c3ccnc(N)c3)cc1C(Nc1ccc(Cl)cc1)CC2 (stereo not drawn) | 7.13
Cc1ccc(NC2CCc3nnc(C)n3-c3ccc(-c4ccc(N)nc4)cc32)cc1 (stereo not drawn) | 6.96

Qu. Need pKi, item Cc1nnc2n1-c1ccc(-c3ccc(N)nc3)cc1C(Nc1ccc(C(F)(F)F)cc1)CC2 (stereo not drawn)
Ans. 6.83

====

Consider the following compounds; for each one, report its pKi.
# targetEntity: Bromodomain-containing protein 4 (Homo sapiens, UniProt O60885)
# test: Binding affinity to human recombinant BRD4 BD1 (44 to 168 residues) by fluorescence polarization assay
Numbers only, as −log10 of the molar value.

Worked examples, 5 compounds total:
Cc1nnc2n1-c1ccc(-c3ccc(CN4CCN(C)CC4)cc3)cc1C(Nc1ccc(Cl)cc1)CC2 (stereo not drawn) | 6.57
Cc1nnc2n1-c1ccc(-c3cnn(C)c3)cc1[C@@H](Nc1ccc(Cl)cc1)CC2 | 5.30
Cc1nnc2n1-c1ccc(-c3ccc(N4CCN(C)CC4)cc3)cc1C(Nc1ccc(Cl)cc1)CC2 (stereo not drawn) | 6.94
Cc1nnc2n1-c1ccc(C3=CCN(C)CC3)cc1C(Nc1ccc(Cl)cc1)CC2 (stereo not drawn) | 5.36
Cc1ccc(NC2CCc3nnc(C)n3-c3ccc(-c4ccc(N)nc4)cc32)cc1 (stereo not drawn) | 6.27

Hi! Can you tell me pKi for each of these compounds?
1. CCn1cc(-c2ccc3c(c2)C(Nc2ccc(Cl)cc2)CCc2nnc(C)n2-3)cn1 (stereo not drawn)
2. Cc1nnc2n1-c1ccc(-c3ccc(C(=O)O)cc3)cc1C(Nc1ccc(Cl)cc1)CC2 (stereo not drawn)
3. Cc1nnc2n1-c1ccc(N)cc1C(Nc1ccc(Cl)cc1)CC2 (stereo not drawn)

Ans.
1: 7.11; 2: 6.61; 3: 4.96
